# Tested on: NCI-H522 lung
# Assay: NCI-60 one-dose screen, 48 h
# Measurement setup: 10 µM unless noted
The panel holds about 83,000 compounds, 20% with a hit somewhere; the sample as a whole holds those more often. Active and inactive are the calls of the source. How the source made its calls: active means growth percent below 10; inactive means the rest.
I would appreciate it if you answered using one of these outcomes: 1 (yes) (active), 0 (no) (inactive)

{"columns": ["Molecule", "Test target", "Label value"],
 "data": [
  ["CCOC(=O)c1nc2c3ccccc3ccn2c1C(=O)OC", "NCI-H522 lung", "0 (no)"],
  ["CCOC(=O)c1nn(C2CCCCO2)c2ccc(NC(=O)Cn3nnc4ccccc43)cc12 (configuration not stated)", "NCI-H522 lung", "0 (no)"],
  ["CC(=O)Nc1ccc2nc3ccc(NC(C)=O)cc3[n+](-c3ccccc3)c2c1", "NCI-H522 lung", "0 (no)"],
  ["CC(C)(C)OC(=O)N1C=C/C(=C\\Cn2cc(-c3ccccc3)nn2)CC1", "NCI-H522 lung", "0 (no)"]
]}

Q: Please indicate how the test categorized CCOC(=O)c1nn(C2CCCCO2)c2ccc(NC(=O)CSc3nc4ccccc4c(=O)[nH]3)cc12 (configuration not stated) .
Result: 0 (no)

Q: Next entry: Cc1cc(NN=C(c2ccc(O)cc2)c2ccc(O)cc2)c([N+](=O)[O-])cc1[N+](=O)[O-]
Result: 0 (no)

Q: Follow-up item: O=C(NCc1ccccc1)C(Cl)Cl
Result: 0 (no)

Q: Repeat for the following molecule: CC(C)=CCC[C@](C)(O)[C@H]1CC[C@]2(C)[C@@H]1CC[C@@H]1[C@@]3(C)CC/C(=N/O)C(C)(C)[C@@H]3CC[C@]12C
Result: 1 (yes)

Q: Note, next up: CCOc1ccc(S(=O)(=O)Nc2ccc3c(c2)N(S(=O)(=O)CC)CCC3)cc1
Result: 0 (no)

Q: Record: Nc1nc(Nc2ccccc2)c2ncn(Cc3ccc4c(c3)OCO4)c2n1
Result: 0 (no)
